assay: IV and PO pharmacokinetic studies of prodrug salts (Iab, Ibb, Icb) in the monkey, with historical parent data; type: in vivo, cynomolgus monkeys; details: male, cynomolgus monkey, plasma, iv, […]; read-out: T1/2 (converted)
measuredAttribute: half-life (h)
Quick note: give the figure in h, leave out the unit.

Summary for this compound, `O=C(C(=O)N1CCN(C(=O)c2ccccc2)CC1)c1c[nH]c2c(-n3ccnn3)ncc(F)c12` : half-life is 6.5

----------
experiment: IV and PO pharmacokinetic studies of prodrug salts (Iab, Ibb, Icb) in the rat, with historical parent data; assay type: in vivo, Sprague-Dawley rats; conditions: plasma, po, 5 mg/kg, read-out: Cmax
measuredAttribute: Cmax (µM)
The reply should contain only the number, in µM.

Documented Cmax of `COc1cnc(-n2cnc(C)n2)c2[nH]cc(C(=O)C(=O)N3CCN(C(=O)c4ccccc4)CC3)c12` : 13

----------
test: IV and PO pharmacokinetic studies of prodrug salts (Iab, Ibb, Icb) in the dog, with historical parent data; assay type: in vivo, beagle dogs; settings: male, beagle, in vivo, iv, 1.28 mg/kg
measuredAttribute: half-life (min)
Numbers only here, please. The scale is min.

Value of half-life reported for the molecule `COc1cnc(-n2cnc(C)n2)c2c1c(C(=O)C(=O)N1CCN(C(=O)c3ccccc3)CC1)cn2COP(=O)(O)O` is 15

----------
test: Single-dose toxicokinetic and tolerability study of prodrugs in dogs; format: in vivo, dog; conditions: female, dog, plasma, po, 92 mg/kg, dog 3201F, day 1, Icb 92 mg/kg (IVc equiv. 75) QD dry-filled capsules
measuredAttribute: AUC(0-inf) (µM·h)
Give just the number in µM·h; leave the unit off.

Sure, the documented AUC(0-inf) for `COc1cnc(-n2cnc(C)n2)c2[nH]cc(C(=O)C(=O)N3CCN(C(=O)c4ccccc4)CC3)c12` is 730

----------
assay: IV and PO pharmacokinetic studies of prodrug salts (Iab, Ibb, Icb) in the rat, with historical parent data; type: in vivo, Sprague-Dawley rats; details: male, Sprague-Dawley, plasma, po, 6.6 mg/kg, read-out: Cmax
measuredAttribute: Cmax (µM)
All answers are understood in µM, so give the number only.

1. O=C(C(=O)N1CCN(C(=O)c2ccccc2)CC1)c1cn(COP(=O)(O)O)c2c(-n3ccnn3)ncc(F)c12 [Ibb]; 0.008

Let's switch to this compound now.
Reported Cmax of O=C(C(=O)N1CCN(C(=O)c2ccccc2)CC1)c1c[nH]c2c(-n3ccnn3)ncc(F)c12 [IVb] : 19

----------
assay: Single-dose oral toxicokinetic study of prodrugs in rats; format: in vivo, rat; conditions: male, CD, rat, plasma, po, 72 mg/kg; read-out: AUC
Reported AUC is given for each of the following compounds.
I'd appreciate it if you included the unit after the number.

1) COc1ncc(OC)c2c(C(=O)C(=O)N3CCN(C(=O)c4ccccc4)CC3)c[nH]c12; 261 µM·h

Now consider a different compound.
`COc1cnc(OC)c2c1c(C(=O)C(=O)N1CCN(C(=O)c3ccccc3)CC1)cn2COP(=O)(O)O` yielded AUC of 0.049 µM·h

----------
experiment: Single-dose oral toxicokinetic study of prodrugs in rats; format: in vivo, rat; settings: male, CD, rat, plasma, po, 5 mg/kg
measuredAttribute: Cmax (µM)
Give the quantity in µM, number only.

Entry `COc1cnc(-n2cnc(C)n2)c2[nH]cc(C(=O)C(=O)N3CCN(C(=O)c4ccccc4)CC3)c12` ; Cmax = 29

----------
experiment: Single-dose toxicokinetic and tolerability study of prodrugs in dogs; type: in vivo, dog; conditions: female, dog, plasma, oral, 92 mg/kg, dog 3201F, day 1, Icb 92 mg/kg (IVc equiv. 75) QD dry-filled capsules; read-out: C24h
measuredAttribute: concentration at 24 h (nM)
Answer format: numeric, nM implied, no suffix.

Consider `COc1cnc(-n2cnc(C)n2)c2[nH]cc(C(=O)C(=O)N3CCN(C(=O)c4ccccc4)CC3)c12` . Its measured concentration at 24 h is 202

----------
Experiment: Single-dose toxicokinetic and tolerability study of prodrugs in dogs
Format: in vivo, dog
Conditions: female, dog, plasma, oral, 250 mg/kg, dog 4201F, day 1, Icb 250 mg/kg (IVc equiv. 203) QD dry-filled capsules; read-out: C24h
Protocol: A multi-phase study was conducted to evaluate the tolerability of the prodrug, Iab (monolysine salt) at dosages of 24, 90, or 240 mg/kg (free acid, molar equivalent to 19, 71, or 190 mg/kg of parent IVa, respectively) and the toxicokinetics of lab and IVa (4). Iab was administered to two female dogs/group once daily either as an aqueous solution (24 or 90 mg/kg) or dry-filled capsules (24, 90 [once and twice daily] or 240 mg/kg). […]
measuredAttribute: concentration at 24 h (nM)
Response body: numeric value in nM, unit text excluded.

The value of concentration at 24 h measured for the compound COc1cnc(-n2cnc(C)n2)c2[nH]cc(C(=O)C(=O)N3CCN(C(=O)c4ccccc4)CC3)c12 [IVc] turned out to be 704

----------
test: IV and PO pharmacokinetic studies of prodrug salts (Iab, Ibb, Icb) in the rat, with historical parent data; format: in vivo, Sprague-Dawley rats; details: plasma, iv, 1 mg/kg, read-out: Vdss
measuredAttribute: Vd (L/kg)
Only the number, expressed in L/kg, is required.

Given item `COc1cnc(-n2cnc(C)n2)c2[nH]cc(C(=O)C(=O)N3CCN(C(=O)c4ccccc4)CC3)c12` , the value recorded as its Vd is 0.36

----------
experiment: IV and PO pharmacokinetic studies of prodrug salts (Iab, Ibb, Icb) in the monkey, with historical parent data; type: in vivo, cynomolgus monkeys; details: male, cynomolgus monkey, plasma; monkey, after IV prodrug; analyte = label; read-out: t1/2 (hr), IV (converted)
measuredAttribute: half-life (h)
Please reply with the bare figure in h and do not write the unit itself.

Recorded results for 2 molecules are shown here.
1) COc1cnc(OC)c2c1c(C(=O)C(=O)N1CCN(C(=O)c3ccccc3)CC1)cn2COP(=O)(O)O; 1
2) COc1ncc(OC)c2c(C(=O)C(=O)N3CCN(C(=O)c4ccccc4)CC3)c[nH]c12; 4.8

# context switch: different molecule, same half-life
For reference, reported half-life for `O=C(C(=O)N1CCN(C(=O)c2ccccc2)CC1)c1cn(COP(=O)(O)O)c2c(-n3ccnn3)ncc(F)c12` stands at 0.1

----------
assay: Single-dose toxicokinetic and tolerability study of prodrugs in dogs; assay type: in vivo, dog; conditions: female, dog, plasma, oral, dogs, 2 hours post dose, Iab 90-240 mg/kg phase; read-out: prodrug detected in plasma
measuredAttribute: concentration at 2 h

Entry `COc1cnc(OC)c2c1c(C(=O)C(=O)N1CCN(C(=O)c3ccccc3)CC1)cn2COP(=O)(O)O` — recorded concentration at 2 h = 5 to 6 nM

----------
assay: IV and PO pharmacokinetic studies of prodrug salts (Iab, Ibb, Icb) in the monkey, with historical parent data; type: in vivo, cynomolgus monkeys; conditions: cynomolgus monkey, plasma, oral, 5 mg/kg; read-out: C-24 hr
measuredAttribute: concentration at 24 hr (nM)
A number alone suffices; assume nM.

In plain terms, `COc1cnc(-n2cnc(C)n2)c2[nH]cc(C(=O)C(=O)N3CCN(C(=O)c4ccccc4)CC3)c12` has a documented concentration at 24 hr of 17

----------
experiment: IV and PO pharmacokinetic studies of prodrug salts (Iab, Ibb, Icb) in the dog, with historical parent data; assay type: in vivo, beagle dogs; conditions: male, beagle, plasma, po, 6.05 mg/kg, read-out: Cmax
measuredAttribute: Cmax (µM)
Note: unit µM is implicit; provide only the numeric part.

Form: compound = COc1cnc(-n2cnc(C)n2)c2[nH]cc(C(=O)C(=O)N3CCN(C(=O)c4ccccc4)CC3)c12 [IVc] ; Cmax = 16

----------
assay: IV and PO pharmacokinetic studies of prodrug salts (Iab, Ibb, Icb) in the dog, with historical parent data; format: in vivo, beagle dogs; details: male, beagle, plasma, after IV prodrug, analyte = label, read-out: t1/2 (hr), IV (converted)
Entries and their half-life values follow.
Return type: number; implicit unit h.

1. COc1ncc(OC)c2c(C(=O)C(=O)N3CCN(C(=O)c4ccccc4)CC3)c[nH]c12; 5.2
2. O=C(C(=O)N1CCN(C(=O)c2ccccc2)CC1)c1cn(COP(=O)(O)O)c2c(-n3ccnn3)ncc(F)c12; 0.83

Now let's try a different one.
Summary for this compound, `COc1cnc(OC)c2c1c(C(=O)C(=O)N1CCN(C(=O)c3ccccc3)CC1)cn2COP(=O)(O)O` : half-life is 0.15

----------
experiment: IV and PO pharmacokinetic studies of prodrug salts (Iab, Ibb, Icb) in the dog, with historical parent data; type: in vivo, beagle dogs; conditions: male, beagle, plasma, parent after oral prodrug (~5 mg/kg parent equivalent), read-out: Tmax (hr), PO
Examples of compounds with documented Tmax follow.
Show the value, then the unit it is measured in.

Solved entries:
1. COc1cnc(-n2cnc(C)n2)c2[nH]cc(C(=O)C(=O)N3CCN(C(=O)c4ccccc4)CC3)c12; 0.58 h
2. COc1ncc(OC)c2c(C(=O)C(=O)N3CCN(C(=O)c4ccccc4)CC3)c[nH]c12; 0.25 h

Now for the compound whose Tmax we want.
Tmax in this record for `O=C(C(=O)N1CCN(C(=O)c2ccccc2)CC1)c1c[nH]c2c(-n3ccnn3)ncc(F)c12` : 0.4 h
